System: LXFL 529
Assay: NCI tumour cell line growth inhibition, 48 h
Active and inactive are the calls of the source. Cut-off read from the data, not from the text of the source: active = GI50 up to about 1.1 µM and inactive = higher.
Labels: active, inactive

compound | system-name | classification
CCOC(=O)NC(=O)c1cn(CCN2CCNCC2)c(=O)[nH]c1=O | LXFL 529 | inactive
CCOP(=O)(OCC)/C(C#N)=C\c1ccc(OC(C)=O)cc1 | LXFL 529 | inactive
COc1ccc2cc3[n+](cc2c1O)CCc1cc2c(cc1-3)OCO2 [BERBERRUBINE CHLORIDE] | LXFL 529 | inactive
COC1=CC(=O)C2C(C1=O)[C@@H]1c3ccccc3OC(C)(C)[C@H]21 (stereo not given in full) | LXFL 529 | inactive
COc1cc(C2c3cc4c(cc3[C@@H](NCCN3CCCCC3)C3COC(=O)[C@H]23)OCO4)cc(OC)c1O (stereo not given in full) | LXFL 529 | inactive
Cc1c2cc[n+](C)cc2c(C)c2c1[nH]c1ccc(Oc3ccccc3)cc12 | LXFL 529 | active
COc1cc(NCC(C#N)C#N)ccc1/N=N/c1ccc([N+](=O)[O-])cc1 | LXFL 529 | inactive
NC(=O)C(=Cc1ccc(CP(=O)(O)O)cc1)C(N)=O | LXFL 529 | inactive
N=c1oc2c(O)c(O)ccc2cc1C(N)=O | LXFL 529 | inactive
COC(=O)C(NC(=O)c1ccccc1)C(c1ccc(Cl)cc1)P(=O)(OC)OC (stereo not given) | LXFL 529 | inactive

----------
Test system: HOP-92
Assay: NCI tumour cell line growth inhibition, 48 h
Active and inactive are the calls of the source. No stated cut-off is given here; in the data, active = GI50 up to about 1.1 µM and inactive = higher.
Below: a set of entries, each annotated with reported GI50.

compound | system-name | GI50
OC1CC(O)O[C@H](c2ccccc2)C1 (some centres not stated) | HOP-92 | > 100 µM (inactive)
O=C1CC2(C[C@@H]3CCCCCCCCC[C@@H](C3)C2)N1 (some centres not stated) | HOP-92 | 10.8 µM (inactive)
COc1ccc(-n2sc3ncc(C)cc3c2=O)cc1 | HOP-92 | 19.9 µM (inactive)
CCOC(=O)N[C@@H]1C(CC(=O)OC)O[C@H]2OC(C)(C)O[C@H]21 (some centres not stated) | HOP-92 | > 100 µM (inactive)
[O-][S+]1c2ccccc2N=C(c2ccc3ccccc3c2)CC1c1ccccc1 (configuration not stated) | HOP-92 | 35.6 µM (inactive)
O=C(C/C(=N/O)C(=O)NC1=C(Cl)C(=O)c2ccccc2C1=O)CC(c1ccccc1)c1c(O)c2ccccc2oc1=O (configuration not stated) | HOP-92 | 22.3 µM (inactive)
CCOc1cc(-c2nc3ccccn3c2/N=C/c2cc(Br)ccc2O)ccc1O | HOP-92 | 21.1 µM (inactive)
O=C1/C(=C/c2ccccc2)CN(C(=O)/C=C/c2ccccc2)C/C1=C\c1ccccc1 | HOP-92 | 25.9 µM (inactive)
CCOP(=O)(OCC)/C(F)=C/c1ccccc1 | HOP-92 | > 100 µM (inactive)
Cc1ccc(NC(=O)CCc2nnc(N)o2)cc1 | HOP-92 | > 100 µM (inactive)
Cc1cc2c(=Cc3ccc(N(C)C)cc3)c3ccccc3n2[n+]1C | HOP-92 | 0.459 µM (active)
O=c1cc(-c2ccccc2)[nH]c2ccc(N3CCCC3)cc12 | HOP-92 | 0.037 µM (active)

----------
Test system: HT-29
Test: NCI tumour cell line growth inhibition, 48 h
The source made the active and inactive calls. No stated cut-off is given here; in the data, active = GI50 up to about 1.1 µM and inactive = higher.
Classes used: 1.0 (active), 0.0 (inactive)

compound | system-name | classification
C[N+](C)(C)CC1CCCC1=O (configuration not stated) | HT-29 | 0.0
Nc1ccc(C2=Nc3ccccc3SC(c3ccccc3O)C2)cc1 (configuration not stated) | HT-29 | 0.0
O=C1c2ccsc2C(=O)c2sc(CO)cc21 | HT-29 | 1.0
Cc1cc2c(=Cc3ccc(N(C)C)cc3)c3ccccc3n2[n+]1C | HT-29 | 1.0
Cc1ccc(NC(=O)CCc2nnc(N)o2)cc1 | HT-29 | 0.0
C[C@@H]([C@H]1CC[C@@]2(C)[C@@H]3CC[C@@H]4C(=CC3=CC[C@]12C)CC[C@H](N(C)C)C4(C)C)N(C)C | HT-29 | 0.0
COc1ccc(/C(Cl)=C/c2cc(OC)ccc2OC)cc1 | HT-29 | 0.0
COc1ccc2c3c1O[C@H]1C[C@@H](O)C=C[C@@]31CCN(C)C2 | HT-29 | 0.0
CN1CCN(c2ccc3[nH]c(-c4ccc5[nH]c(CCCc6ccc(N(CCCl)CCCl)cc6)nc5c4)nc3c2)CC1 | HT-29 | 0.0
CC[C@@]1(O)C(=O)OCc2c1cc1n(c2=O)Cc2c-1nc1ccccc1c2/C=N\NC(=O)CN | HT-29 | 0.0
CCOC(=O)C1C(=O)C(=O)N2CCc3c([nH]c4ccccc34)C12 (configuration not stated) | HT-29 | 0.0
CCOc1ccc(O)cc1[P+](c1ccccc1)(c1ccccc1)c1ccccc1 | HT-29 | 0.0

----------
Tested on: 786-0
Assay: NCI tumour cell line growth inhibition, 48 h
Calls of active or inactive are those of the source. No stated cut-off is given here; in the data, active = GI50 up to about 1.1 µM and inactive = higher. Square brackets hold non-standard residues; d marks the D form. Peptide text beside a SMILES is read from it. * marks the point of attachment. ξ: configuration not given here. ξF = NC(Cc1ccccc1)C(=O)O; Cbz = O=C(OCc1ccccc1)*; Aib = CC(C)(N)C(=O)O
Labels: active, inactive

molecule | classification
CN(C)c1ccc(Cc2cc3c(O)ccc(O)c3cc(Cc3ccc(N(C)C)cc3)c2=O)cc1 | inactive
CC(=O)OC1CCN(C(=O)c2ccccc2)CC1CC1(c2cc3ccccc3[nH]2)OCCO1 (configuration not stated) | inactive
Cc1ccccc1Nc1nc(NNC(=O)Cc2ccccc2)nc(NNC(=O)c2ccncc2)n1 | inactive
CN(C)c1nc(N(C)C)nc(N(C)CN(C)c2nc(N(C)C)nc(N(C)C)n2)n1 | inactive
C=C1C(=O)O[C@@H]2C[C@@]3(C)CCC[C@H](C)C3=C[C@H]12 | inactive
CC(C)(C)c1cc(C(=O)/C=C/c2ccc3c(c2)CCO3)cc(C(C)(C)C)c1O | active
O=C(CCc1ccc(O)c(O)c1)NCCc1cc(O)cc(O)c1 | inactive
NC(=O)C#CC(N)=O | inactive
O=C1C(CO)=C[C@@H](O)[C@H]2O[C@@H]12 | inactive
COc1ccc(-n2sc3ncc(C)cc3c2=O)cc1 | inactive
COC(=O)CC(C(C(=O)OC)C(=O)OC)N1C(=O)OC(c2ccccc2)C1c1ccccc1 (configuration not stated) | inactive
C=C(CN(C)C)C(=O)c1ccc(C)cc1C | inactive
CC(C)(NC(=O)OCc1ccccc1)C(=O)NC(Cc1ccccc1)C(=O)O (configuration not stated) (Cbz-[Aib]-[ξF]-OH) | inactive
Cc1c(O)c(=O)ccn1CCN | inactive
CC(C)(C)C#COC(=O)c1ccccc1 | inactive
CC(=O)c1cccc(Nc2nc3ccccc3c3[nH]c4ccccc4c23)c1 | inactive
O=C1CSC(c2ccc(Cl)cc2)N1c1ccc(-n2c(-c3ccccc3)nc3ccccc3c2=O)cc1 (configuration not stated) | inactive
CC1CC(N2CCOCC2)=Nc2ccccc2N1C (configuration not stated) | inactive
O=C(NNc1nc(-c2ccccc2)cs1)Nc1ccccc1 | inactive
Cc1ccc2c(O)cc(-c3cccc(Cl)c3)nc2n1 | active
COC(=O)CNC(=O)CNC(=O)CSc1nnc(COc2ccc(Cl)cc2)n1-c1ccccc1 | inactive
Oc1cnc2c(O)cccc2c1 | inactive

----------
System: OVCAR-4
Experiment: NCI tumour cell line growth inhibition, 48 h
Activity calls are given as the source filed them. Rule as the data show it: active = GI50 up to about 1.1 µM and inactive = higher.

compound | GI50
CC(=O)Nc1ccc(C(=O)NN2C(=O)C(Cl)C2c2ccc([N+](=O)[O-])cc2)cc1 (stereo unspecified) | > 100 µM (inactive)
O=C(O)c1cccc(F)c1C(=O)c1ccc2ccccc2c1 | > 100 µM (inactive)
COC(=O)c1ccc2n1C1CC3CC(CC2C3)C1 | > 100 µM (inactive)
CC(=O)OC1[C@@H](OC(C)=O)CN(OCc2ccccc2)C[C@H]1OC(C)=O (stereo partly specified) | > 100 µM (inactive)
CCN(CC)CCNc1nc(N)c(C#N)c(C#N)c1C#N | > 10 µM (inactive)
Cn1c2ccccc2c(=NNc2ccc(C(=O)O)cc2)c2ccccc21 | 12.9 µM (inactive)
O=S1(=O)CS(=O)(=O)OCCCCCO1 | > 100 µM (inactive)
CC(C)N(C(=O)C12C3C4C1C1C4(C#N)C3C12C(=O)O)C(C)C (stereo unspecified) | > 100 µM (inactive)
COc1ccc(CNc2cnc3cc(N)ccc3n2)cc1OC | > 100 µM (inactive)
CC1CC(N2CCOCC2)=Nc2ccccc2N1C (stereo unspecified) | > 100 µM (inactive)
O=C1CSC(c2ccc(Cl)cc2)N1c1ccc(-n2c(-c3ccccc3)nc3ccccc3c2=O)cc1 (stereo unspecified) | 12.9 µM (inactive)

----------
Tested on: HOP-62
Assay: NCI tumour cell line growth inhibition, 48 h
Active and inactive are the calls of the source. No stated cut-off is given here; in the data, active = GI50 up to about 1.1 µM and inactive = higher.
Labels: active, inactive

molecule | classification
COc1ccc(C2(c3ccc(OC)cc3)OC(=O)c3cccc4cccc2c34)cc1 | inactive
O=C(SC1=NCCN1)c1cccc2ccccc12 | inactive
C[C@@H]([C@H]1CC[C@@]2(C)[C@@H]3CC[C@@H]4C(=CC3=CC[C@]12C)CC[C@H](N(C)C)C4(C)C)N(C)C [BUXAMINE A] | inactive
CC1=C(N(C)C)C(=O)c2nc3n(c2C1=O)CCC3OC(N)=O (stereo unspecified) | inactive
O=C1/C(=C2/C(=O)N(c3ccccc3)c3ccccc32)Nc2ccccc21 | inactive
Cc1ccc2nc3c(C(=O)NCCN(C)C)cccc3cc2c1 | inactive
CCOc1cc(-c2nc3ccccn3c2/N=C/c2cc(Br)ccc2O)ccc1O | inactive
CC(C)C(/C=C/c1ccc(Cl)cc1)=N\NC(=O)N/N=C(/C=C/c1ccc(Cl)cc1)C(C)C | inactive
NC(CCC(=O)NC(CSC(=O)N(O)c1ccccc1)C(=O)NCC(=O)O)C(=O)O (stereo unspecified) | inactive
COc1ccc(-c2cc(-c3cc(C)cc(Br)c3O)no2)cc1 | inactive
O=c1cc[nH]c(=O)[nH]1 [URACIL] | inactive
CCOP(=O)(OCC)/C(F)=C/c1ccccc1 | inactive
CN(C)c1ccc(Cc2cc3c(O)ccc(O)c3cc(Cc3ccc(N(C)C)cc3)c2=O)cc1 | inactive
CCOC(=O)C(=NN(C)c1ncccc1N)C(=O)OCC | inactive
COC1CC(COCc2ccccc2)CC(OC)O1 (stereo unspecified) | inactive
Cc1cc2c(=Cc3ccc(N(C)C)cc3)c3ccccc3n2[n+]1C | active
CC(=O)OC1C[C@H]2C(OC(=O)c3ccccc3)C3C4(OC(C)=O)COC4C[C@H](OC(C)=O)[C@@]3(C)C(OC(C)=O)[C@H](OC(C)=O)C(=C1C)C2(C)C (stereo partly specified) | inactive
CN(C)CCn1c(=O)c2ccc3c4c(nn3CCN(C)C)c3ccccc3n(c1=O)c24 | active
O=C(CCCN1CCC(Nc2ccccc2)(c2nnnn2C2CCCCC2)CC1)c1ccc(F)cc1 | inactive
COc1ccc2cc3[n+](cc2c1O)CCc1cc2c(cc1-3)OCO2 [BERBERRUBINE CHLORIDE] | inactive
COc1ccccc1N1C(=O)CSC1c1cc(OC)c(OC)c(OC)c1 (stereo unspecified) | inactive
